# measured.target: insulin (human, UniProt P01308)
# Sequence (P01308 25-54, chain 1 of 2): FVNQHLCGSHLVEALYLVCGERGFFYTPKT
# Sequence (P01308 90-110, chain 2 of 2): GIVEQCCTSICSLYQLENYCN
# procedure.text: BLI
Reported Kd by item:
Give a bare numeral; the unit nM is implied.

INSERT INTO results (binder, quantity_measured, value_unit, observed_value) VALUES
  ('nolinkLOV C185A "dark" (antibody) MAQIQLVQSGPELKKPGETVKISCKASGYTFTDYSMHWVKQAPGKGLKWMDWINTETGVPTYADDFKGRFAFSLETSANTAYLQINDLKNEDTATYFCTRGYGKGYFDVWGAGTTVTVSSAKSTPPSVYPLAPGSGEFLATTLERIEKNFVITDPRLPDNPIIFASDSFLQLTEYSREEILGRNARFLQGPETDRATVRKIRDAIDNQTEVTVQLINYTKSGKKFWNLFHLQPMRDQKGDVQYFIGVQLDGTEHVRDAAEREAVMLIKKTAEEIDEAAKELQIVLTQSPTIMSASLGERVTMTCTASSSVSSSYLHWYQQKPGSSPKLWIYSTSNLASGVPARFSGSGSGTSYSLTISSMEAEDAATYYCHQYHRSPPTFGAGTKLELKRADAAKL', 'Kd', 'nM', 198),
  ('WT anti-insulin scFv (HB125) (antibody) MAQIQLVQSGPELKKPGETVKISCKASGYTFTDYSMHWVKQAPGKGLKWMDWINTETGVPTYADDFKGRFAFSLETSANTAYLQINDLKNEDTATYFCTRGYGKGYFDVWGAGTTVTVSSAKSTPPSVYPLAPGSGGGGSGGGGSGGGGSQIVLTQSPTIMSASLGERVTMTCTASSSVSSSYLHWYQQKPGSSPKLWIYSTSNLASGVPARFSGSGSGTSYSLTISSMEAEDAATYYCHQYHRSPPTFGAGTKLELKRADAA', 'Kd', 'nM', 55.2);

Reported Kd for nolinkLOV (antibody) MAQIQLVQSGPELKKPGETVKISCKASGYTFTDYSMHWVKQAPGKGLKWMDWINTETGVPTYADDFKGRFAFSLETSANTAYLQINDLKNEDTATYFCTRGYGKGYFDVWGAGTTVTVSSAKSTPPSVYPLAPGSGEFLATTLERIEKNFVITDPRLPDNPIIFASDSFLQLTEYSREEILGRNCRFLQGPETDRATVRKIRDAIDNQTEVTVQLINYTKSGKKFWNLFHLQPMRDQKGDVQYFIGVQLDGTEHVRDAAEREAVMLIKKTAEEIDEAAKELQIVLTQSPTIMSASLGERVTMTCTASSSVSSSYLHWYQQKPGSSPKLWIYSTSNLASGVPARFSGSGSGTSYSLTISSMEAEDAATYYCHQYHRSPPTFGAGTKLELKRADAAKL : what is it?
78.5
